Each record here notes measured pIC50.
Tested on: CCRF-HSB-2 cells (human acute lymphoblastic leukemia)
ASSAY NAME: MTT cell proliferation inhibition assay, CCRF-HSB-2 cells
Assay type: cell-based
COND: MTT assay, cultured 3 days, probit analysis, read-out: Inhibitory concentration against tumor cell lines in vitro IC50, CCRF-HSB-2
pIC50: −log10 of the molar value.

COMPOUND	pIC50
Cc1c[nH]c(=O)n2nc(-c3ccc(C(=O)O)cc3)nc12 [Compound 5n]	< 4.00
Cc1c[nH]c(=O)nc1NN=Cc1ccccc1 [Compound 3b]	< 4.00
Cc1c[nH]c(=O)n2nc(-c3ccc(C#N)cc3)nc12 [Compound 5m]	< 4.00
